testTarget: T1, Cynomolgus TNFR2-His (Sino 90102-C08H) (cynomolgus monkey, UniProt A0A2K5VET2 132-366)
T1 construct: Bought protein; also called cynomolgus monkey TNFR2; recombinant cynomolgus monkey TNFR2 protein; not shown: His tag
T1 sequence: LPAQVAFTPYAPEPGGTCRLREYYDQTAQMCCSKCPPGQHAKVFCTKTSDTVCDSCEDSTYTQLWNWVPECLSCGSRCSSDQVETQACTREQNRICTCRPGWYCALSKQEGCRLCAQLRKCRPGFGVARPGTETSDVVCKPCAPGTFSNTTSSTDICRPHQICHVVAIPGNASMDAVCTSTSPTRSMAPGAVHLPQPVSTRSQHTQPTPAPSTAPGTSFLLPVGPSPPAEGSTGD
protocol: SPR (Biacore T200), antibody captured on Protein A chip
# koff per entry

binder	endpointValue
001-Hu3 (antibody, V domains shown, Humanized form of #001; also called VH1 + VL3) VH: EVQLVESGGGLVQPGGSLRLSCAASGFAFSTYDLSWVRQAPGKGLEWVAYINNGGISTYYSDTVKGRFTISRDNAKNTLYLQMNSLRAEDTAVYYCVRGPFYGSANYFDYWGQGTLVTVSS VL: DIQMTQSPSSLSASVGDRVTITCRTSESIYSNLPWYQQKPGKAPKLLIYDATKLAEGVPSRFSGSGSGTDYTLTISSLQPEDFATYYCQHFWVTPWTFGQGTKVEIK	0.000155 s⁻¹

## Task Please give the measured koff for this binder: 224-Hu7 (antibody, V domains shown, Humanized form of #224; also called VH9 + VL10) VH: QVQLVQSGSELKKPGASVKVSCKASGFNNKDIYMHWVRQAPGQGLEWMGRIDPATGNTKHDPKFQDKAVLSSDTSVSTAYLQISSLKAEDTAVYYCARSPYGDFGAMDYWGQGTLVTVSS VL: DIQMTQSPSSLSASVGDRVTITCTASSSVSSNYLHWYQQKPGKAPKLLIYSTSNLPSGVPSRFSGSGSGTDFTLTISSLQPEDFATYYCHQYHRSPWTFGQGTKVEIK
## Result 0.000991 s⁻¹
